Where these numbers come from: patent US20180230200A1

# STUDY SYSTEM: gH/gL/UL128/UL130/UL131A pentamer complex (PC) of HCMV strain TB40/E virus (human cytomegalovirus strain TB40/E)
# ASSAY TEXT: cell-based or functional assay
ENDPOINT NAME: IC50, neutralization of TB40/E infection of HUVEC (ng/mL)
All answers are understood in ng/mL, so give the number only.

BINDER	ENDPOINT RESULT
21F6 (antibody, V domains shown, also called NAb 21F6) VH: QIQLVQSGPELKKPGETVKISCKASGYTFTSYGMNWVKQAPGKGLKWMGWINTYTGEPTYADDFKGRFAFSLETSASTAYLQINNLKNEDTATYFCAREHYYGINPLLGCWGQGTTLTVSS VL: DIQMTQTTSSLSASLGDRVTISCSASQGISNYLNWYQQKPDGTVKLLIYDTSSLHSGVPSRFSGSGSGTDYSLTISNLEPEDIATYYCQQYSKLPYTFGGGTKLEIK	4

Now let's try a different one.
Entry 54E11 (antibody, V domains shown, also called NAb 54E11) VH: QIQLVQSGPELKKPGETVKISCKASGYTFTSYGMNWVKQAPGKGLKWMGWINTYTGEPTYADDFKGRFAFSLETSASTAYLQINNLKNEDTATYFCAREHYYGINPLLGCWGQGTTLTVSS VL: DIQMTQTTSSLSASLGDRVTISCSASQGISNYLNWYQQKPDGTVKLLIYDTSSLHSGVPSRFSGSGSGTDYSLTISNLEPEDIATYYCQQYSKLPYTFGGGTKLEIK has what IC50, neutralization of TB40/E infection of HUVEC?
4.6
